test system: soybean; test: Test C preemergence; assay type: in vivo, Glycine max; conditions: preemergence, 62 g ai/ha; scale 0 to 100 (0 no effect, 100 complete control), 13 to 15 days
Mark label 1 only for Soybean plant response rating values smaller than 80; exact matches and larger values are label 0.

Is it true that Soybean plant response rating reported for CCCc1cc(C(=O)NOC(C)C)nn1Cc1cc(C(F)(F)F)nn1C [Compound 203] is less than 80?
label 1

One more compound: CCc1cc(C(=O)NCC(F)(F)F)nn1Cc1ccnc(Br)c1 [Compound 224]
label 1

Now this one: CCONC(=O)c1cc(CC)n(Cc2ccnc(OC(F)F)c2)n1 [Compound 131]
label 1

Now try CCCc1cc(C(=O)NC(C)C)nn1Cc1cc(C(F)(F)F)nn1C [Compound 201] .
label 0

What do you get for CCc1cc(C(=O)NCC(F)(F)F)nn1Cc1nc(C(F)(F)F)nn1C [Compound 107] ?
label 0

Subsequent entry: CCCNC(=O)c1cc(CC)n(Cc2nc(C(F)(F)F)nn2C)n1 [Compound 109]
label 0

Next record, please: CCNC(=O)c1cc(CCF)n(Cc2ccnc(C(F)(F)F)c2)n1 [Compound 178]
label 1

Another compound to look at: CCCNC(=O)c1cc(OCC)n(Cc2ccnc(C(F)(F)F)c2)n1 [Compound 187]
label 0

Same question, CCCc1cc(C(=O)NCC(F)(F)F)nn1Cc1ccnc(OC(F)F)c1 [Compound 127] this time
label 1
